Molecular target: rHDAC6 (Homo sapiens, UniProt Q9UBN7)
Construct: FLAG; made in house
Sequence (Q9UBN7 1-1215): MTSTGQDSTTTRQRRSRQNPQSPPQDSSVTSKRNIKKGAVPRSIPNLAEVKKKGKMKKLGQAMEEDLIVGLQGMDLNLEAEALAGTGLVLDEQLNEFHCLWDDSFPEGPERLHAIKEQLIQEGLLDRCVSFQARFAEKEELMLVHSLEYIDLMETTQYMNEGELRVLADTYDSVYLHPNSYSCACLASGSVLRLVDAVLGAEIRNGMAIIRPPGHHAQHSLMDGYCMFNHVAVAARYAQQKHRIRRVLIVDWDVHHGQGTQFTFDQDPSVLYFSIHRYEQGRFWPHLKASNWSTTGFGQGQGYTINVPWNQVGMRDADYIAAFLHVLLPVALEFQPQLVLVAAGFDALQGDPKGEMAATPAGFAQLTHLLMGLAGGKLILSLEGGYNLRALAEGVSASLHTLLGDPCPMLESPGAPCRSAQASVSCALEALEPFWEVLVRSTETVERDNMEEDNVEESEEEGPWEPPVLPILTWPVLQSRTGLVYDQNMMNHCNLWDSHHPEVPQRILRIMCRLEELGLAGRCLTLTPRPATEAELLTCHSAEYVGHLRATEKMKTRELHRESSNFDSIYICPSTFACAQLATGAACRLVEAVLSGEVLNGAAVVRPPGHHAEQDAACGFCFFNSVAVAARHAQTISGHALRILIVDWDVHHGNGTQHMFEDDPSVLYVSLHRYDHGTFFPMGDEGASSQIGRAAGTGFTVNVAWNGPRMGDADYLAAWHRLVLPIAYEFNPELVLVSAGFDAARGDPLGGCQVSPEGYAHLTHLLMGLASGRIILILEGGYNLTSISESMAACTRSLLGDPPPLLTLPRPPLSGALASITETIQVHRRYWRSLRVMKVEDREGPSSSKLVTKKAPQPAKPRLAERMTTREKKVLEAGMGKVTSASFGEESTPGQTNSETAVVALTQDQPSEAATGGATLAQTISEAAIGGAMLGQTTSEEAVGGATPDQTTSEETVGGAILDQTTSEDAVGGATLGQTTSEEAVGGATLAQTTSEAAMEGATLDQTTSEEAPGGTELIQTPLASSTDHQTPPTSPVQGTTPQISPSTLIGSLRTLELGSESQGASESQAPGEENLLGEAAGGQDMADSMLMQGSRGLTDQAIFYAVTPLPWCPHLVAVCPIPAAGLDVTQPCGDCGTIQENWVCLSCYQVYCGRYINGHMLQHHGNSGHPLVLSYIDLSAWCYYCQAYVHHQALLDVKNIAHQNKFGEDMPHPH
Assay: rHDAC6 enzymatic assay (recombinant FLAG-HDAC6)
Type: biochemical
Settings: FLAG-HDAC6 from HEK293; 10 μM Ac-NH-GGK(Ac)-AMC, 3 h at 30° C.; read-out: rHDAC6 [pIC50] (converted)
Where a name gives a salt, the structure may show the parent alone.
readout.type: IC50

Worked examples follow.
compound	readout.type	measured
O=C(NO)c1ccc2c(c1)CN(C(=O)Cc1ccccn1)CC2 [Example 21, hydrochloride]	IC50	1 to 100 nM
COc1ccc2[nH]c(C(=O)N3CCc4cc(C(=O)NO)ccc4C3)cc2c1 [Example 15]	IC50	1 to 100 nM
O=C(NO)c1ccc2c(c1)CCN(C(=O)Cc1cccnc1)C2 [Example 8, hydrochloride]	IC50	100 to 1000 nM
CN(C)CCCC(=O)N1CCc2cc(C(=O)NO)ccc2C1 [Example 9, hydrochloride]	IC50	100 to 1000 nM
O=C(NO)c1ccc2c(c1)CN(C(=O)NCCc1ccccc1)CC2 [Example 22]	IC50	1 to 100 nM
CC(=O)N1CCc2cc(C(=O)NO)ccc2C1 [Example 12]	IC50	100 to 1000 nM
O=C(NO)c1ccc2c(c1)CCN(C(=O)Cc1c[nH]c3ccccc13)C2 [Example 1, hydrochloride]	IC50	1 to 100 nM
CNC(=O)N1CCc2cc(C(=O)NO)ccc2C1 [Example 4]	IC50	1 to 100 nM

Problem: Quick one: IC50 of O=C(NO)c1ccc2c(c1)CN(C(=O)C1CCOC1)CC2 (stereo not drawn) [Example 20] ?
Result: 100 to 1000 nM
